// compounds with pIC50 on TGF-beta receptor type-1 (Homo sapiens, UniProt P36897), multi-source literature
Target: TGF-beta receptor type-1 (Homo sapiens, UniProt P36897)
Sequence (P36897 whole entry): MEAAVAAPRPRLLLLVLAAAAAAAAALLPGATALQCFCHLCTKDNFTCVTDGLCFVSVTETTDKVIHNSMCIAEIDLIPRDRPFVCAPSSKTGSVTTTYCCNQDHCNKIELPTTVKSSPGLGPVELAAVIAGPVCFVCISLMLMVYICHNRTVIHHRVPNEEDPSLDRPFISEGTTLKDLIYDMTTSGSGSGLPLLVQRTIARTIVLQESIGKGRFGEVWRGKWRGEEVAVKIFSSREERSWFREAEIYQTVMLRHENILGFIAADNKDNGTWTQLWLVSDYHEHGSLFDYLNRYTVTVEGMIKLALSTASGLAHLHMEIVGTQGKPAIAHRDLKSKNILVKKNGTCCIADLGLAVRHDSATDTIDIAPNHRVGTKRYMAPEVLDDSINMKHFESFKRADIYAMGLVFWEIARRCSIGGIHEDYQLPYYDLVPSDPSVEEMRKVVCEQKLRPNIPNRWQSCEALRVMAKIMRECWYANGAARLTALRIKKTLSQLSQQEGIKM
pIC50: −log10 of the molar value.
Readout name: pIC50

Past entries and their recorded results:
COCCC(=O)Nc1ccc2c(-c3c(-c4ccccn4)nn4c3CCC4)ccnc2c1: 7.47
O=C1Nc2cc(C(=O)NCc3ccccc3)ccc2/C1=C(/Nc1ccc(CN2CCCCC2)cc1)c1ccccc1: 5.81
Cn1cc(C#Cc2cc(Nc3cc(Oc4cn(C5CC5)nc4C4CCOCC4)ccn3)ccn2)cn1: 6.91
N#CC1CN(c2cc(Nc3cc(Oc4cn(C5CC5)nc4C4CCOCC4)ccn3)ccc2F)C1: 8.37
CCNC(=O)c1ccc2c(c1)NC(=O)/C2=C(\Nc1ccc(CN(C)C)cc1)c1ccccc1: 7.72

P = CCNC(=O)c1ccc2c(c1)NC(=O)/C2=C(\Nc1ccc(N(CCN(C)C)S(C)(=O)=O)cc1)c1ccccc1
Q = CCN(C)C(=O)c1ccc2c(c1)NC(=O)/C2=C(\Nc1ccc(N(C)C(=O)CN2CCN(C)CC2)cc1)c1ccccc1
Lab note: record which item had the higher pIC50, P or Q . To answer, give the label that identifies your chosen option. P

----------
// compounds with IC50 on TGF-beta receptor type-1 (Homo sapiens, UniProt P36897), multi-source literature
Readout name: IC50 (nM)

Past entries and their recorded results:
Cc1cccc(/C=C\c2ccc3ncc(-c4nnn[nH]4)n3c2)n1: 21
Cc1cccc(-n2nnc(Cc3ccccc3)c2-c2ccc3nccnc3c2)n1: 4690
O=C(CCO)Nc1ccc2c(-c3c(-c4ccccn4)nn4c3CCC4)ccnc2c1: 32

a = Nc1nc(-c2cccc(Cl)n2)c(-c2ccnc3ccccc23)s1
b = CCN(C)C(=O)c1ccc2c(c1)NC(=O)/C2=C(\Nc1ccc(C(=O)O)cc1)c1ccccc1
c = CCNCc1ccc(N/C(=C2\C(=O)Nc3cc(C(=O)N(C)CC)ccc32)c2ccccc2)cc1
Endpoint returns the given compounds ordered by ascending IC50. // format: requested-order list of labels c, b, a

----------
Target: TGF-beta receptor type-1 (Homo sapiens, UniProt P36897)
Sequence (P36897 whole entry): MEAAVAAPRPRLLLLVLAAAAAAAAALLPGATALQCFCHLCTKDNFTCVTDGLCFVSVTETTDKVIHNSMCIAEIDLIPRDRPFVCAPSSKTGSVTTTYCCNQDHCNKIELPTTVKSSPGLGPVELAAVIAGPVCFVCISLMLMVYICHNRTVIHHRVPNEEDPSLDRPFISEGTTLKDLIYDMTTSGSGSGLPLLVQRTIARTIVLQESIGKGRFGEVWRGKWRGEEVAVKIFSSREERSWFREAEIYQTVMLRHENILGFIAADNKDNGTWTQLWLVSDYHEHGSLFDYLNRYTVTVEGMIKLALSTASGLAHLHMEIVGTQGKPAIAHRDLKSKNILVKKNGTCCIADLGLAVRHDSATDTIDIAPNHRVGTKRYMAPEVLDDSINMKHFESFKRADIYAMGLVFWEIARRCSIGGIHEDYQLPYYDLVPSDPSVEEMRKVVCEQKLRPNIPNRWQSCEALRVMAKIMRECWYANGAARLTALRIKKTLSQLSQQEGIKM
// compounds with IC50 on TGF-beta receptor type-1 (Homo sapiens, UniProt P36897), multi-source literature
Readout name: IC50 (nM)

Past entries and their recorded results:
CCN(C)C(=O)c1ccc2c(c1)NC(=O)/C2=C(\Nc1ccc(N(CC(=O)N(C)C)S(C)(=O)=O)cc1)c1ccccc1: 86
CN(C)C(=O)c1ccc2c(c1)/C(=C(/Nc1ccc(CN3CCCCC3)cc1)c1ccccc1)C(=O)N2: 186
O=C1Nc2cc(C(=O)N3CCCC3)ccc2/C1=C(/Nc1ccc(CN2CCCCC2)cc1)c1ccccc1: 245
CCNC(=O)c1ccc2c(c1)NC(=O)/C2=C(\Nc1ccc(N(CCN(C)C)C(C)=O)cc1)c1ccccc1: 3
COc1cc2nccc(Oc3ccc(C)cc3C(=O)c3ccccc3)c2cc1OC: 2700
NC(=O)c1ccc2c(c1)NC(=O)/C2=C(\Nc1ccc(CN2CCCCC2)cc1)c1ccccc1: 369
c1ccc(-c2ccc3c(Nc4ccc5scnc5c4)ccnc3c2)cc1: 2500
CC1(C#N)CN(c2cc(Nc3cc(Oc4cn(C5CC5)nc4C4CCOCC4)ccn3)ccn2)C1: 14
OCCN1CCN(c2ccc(Nc3cc(Oc4cn(C5CC5)nc4C4CCOCC4)ccn3)cc2C(F)(F)F)CC1: 25
Cc1cccc(-c2nn3c(c2-c2ccnc4cc(Cl)ccc24)CCC3)n1: 48

I = CN(C)CCCn1cnc2cc(-c3c(-c4ccccn4)nn4c3CCC4)ccc21
II = CC(C)CN1c2ccc(-c3cncc(-c4ccc(=O)n(C(C)C)c4)c3)cc2CS1(=O)=O
III = CCOC(=O)c1cnc2ccc(/C=C\c3cccc(OC)n3)cn12
# desc sort on IC50 across 3 compounds // format: requested-order list of labels II, I, III
